Known Kd of a selection of binders
Biological target: T1, RAP2A, mGppNHp-bound (human, UniProt P10114 1-183)
T1 construct: human RAP2A; Loaded with mGppNHp
T1 sequence (looked up): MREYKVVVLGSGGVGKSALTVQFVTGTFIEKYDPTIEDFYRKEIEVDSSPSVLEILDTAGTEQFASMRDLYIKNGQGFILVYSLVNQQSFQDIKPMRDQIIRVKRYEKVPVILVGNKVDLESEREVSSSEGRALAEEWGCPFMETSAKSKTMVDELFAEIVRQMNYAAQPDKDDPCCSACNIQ
Experiment: fluorescence polarisation; increasing concentrations of the RA/RB domain as MBP fusion protein (0.002-300 µM; or MBP alone) titrated to mGppNHp-bound RAS protein (1 µM); 30 mM Tris-HCl pH 7.4, 100 mM NaCl, 5 mM MgCl2, 3 mM DTT; Kd from a quadratic ligand-binding equation
Conditions: both partners purified
Numbers only here, please. The scale is µM.

binder	outputUnit	Kd
RASSF4 RA domain, MBP fusion protein (domain or fragment, human, UniProt Q9H2L5 174-262, looked up, RASSF4 RA domain, aa 174-262 of Q9H2L5) YNHKTSVFTPAYGSVTNVRVNSTMTTLQVLTLLLNKFRVEDGPSEFALYIVHESGERTKLKDCEYPLISRILHGPCEKIARIFLMEADL	µM	88

I'd like to know its Kd. The binder in question is RASSF2 RA domain, MBP fusion protein (domain or fragment, human, UniProt P50749 176-264, looked up, RASSF2 RA domain, aa 176-264 of P50749) YNHKTSVFTPAYGSVTNVRINSTMTTPQVLKLLLNKFKIENSAEEFALYVVHTSGEKQKLKATDYPLIARILQGPCEQISKVFLMEKDQ
47

Request: RASSF6 RA domain, MBP fusion protein (domain or fragment, human, UniProt Q6ZTQ3 218-306, looked up, RASSF6 RA domain, aa 218-306 of Q6ZTQ3) YNHETSIFIPAFESETKVRVNSNMRTEEVIKQLLQKFKIENSPQDFALHIIFATGEQRRLKKTDIPLLQRLLQGPSEKNARIFLMDKDA
53

Request: RASSF10 RA domain, MBP fusion protein (domain or fragment, human, UniProt A6NK89 4-133, looked up, RASSF10 RA domain, aa 4-133 of A6NK89) SEKKISVWICQEEKLVSGLSRRTTCSDVVRVLLEDGCRRRRRQRRSRRLGSAGDPHGPGELPEPPNEDDEDDDEALPQGMLCGPPQCYCIVEKWRGFERILPNKTRILRLWAAWGEEQENVRFVLVRSEA
67

Request: RASSF7 RA domain, MBP fusion protein (domain or fragment, human, UniProt Q02833 6-89, looked up, RASSF7 RA domain, aa 6-89 of Q02833) AAMELKVWVDGIQRVVCGVSEQTTCQEVVIALAQAIGQTGRFVLVQRLREKERQLLPQECPVGAQATCGQFASDVQFVLRRTGP
68

Request: RASSF5 RA domain, MBP fusion protein (domain or fragment, UniProt Q5EBH1 200-358, looked up, RASSF5 RA domain, aa 200-358 of Q5EBH1 as the methods print it; also called NORE1; RAPL) PPTIQEIKQKIDSYNSREKHCLGMKLSEDGTYTGFIKVHLKLRRPVTVPAGIRPQSIYDAIKEVNPAATTDKRTSFYLPLDAIKQLHISSTTTVSEVIQGLLKKFMVVDNPQKFALFKRIHKDGQVLFQKLSIADYPLYLRLLAGPDTDVLSFVLKENE
2

Measured values drawn from paper PMC8163975 for this set.
